System: UACC-62 melanoma
Assay: NCI tumour cell line growth inhibition, 48 h
valueKind: TGI

CC#C/C(=N\OC[C@H]1COCCN1)c1ccc2ncnc(Nc3ccc(OCc4cccc(F)c4)c(Cl)c3)c2c1	3.11 µM
CN(C)CCNC(=O)c1cccc2c(Nc3ccc(S(N)(=O)=O)cc3)c3ccccc3nc12	3.42 µM
C=C1c2[nH]c3ccccc3c2C2C(CC)C1CCN2C (centres undefined)	> 100 µM
Nc1ncc(Cl)c(NCC2(CO)CC(CCc3ccccc3)C2)n1 (centres undefined)	> 100 µM
CCCCCCCC/C=C\CCCCCCCC(=O)O	351 µM
O=C(/C=C1\C[C@H]2C=Nc3ccccc3C(=O)N2C1)NCCCCNC(=O)/C=C1\C[C@H]2C=Nc3ccccc3C(=O)N2C1	29 µM
CN(/N=C/c1cccc2cccnc12)c1ccc([N+](=O)[O-])cc1	> 100 µM
Cc1oc(N)c(S(=O)(=O)c2ccc(Cl)cc2)c1C	> 100 µM
CC(=O)Oc1ccc2c(c1)oc1c3ccc(OC(C)=O)cc3n(C)c(=O)c21	> 100 µM
NC(=O)c1coc(C2OC(CO)C(O)C2O)n1 (centres undefined)	> 100 µM
CCCCc1ccc(Nc2nc(=S)c3[nH]cnc3[nH]2)cc1	35.1 µM
C/C=C1/CN2CCC3(O)c4ccccc4N4C=C(C(=O)OC)C1CC2C43O (centres undefined)	> 100 µM
CN(C)/N=C(/c1nc2ccc([N+](=O)[O-])cc2[nH]c1=O)C(O)c1ccco1 (centres undefined)	> 100 µM
Cc1cc(O)c(C2=NN(c3ccc(S(N)(=O)=O)cc3)C(c3ccc(N(C)C)cc3)C2)c(C)c1Cl (centres undefined)	25.8 µM
O=C(CC1(O)C(=O)Nc2ccccc21)c1ccco1 (centres undefined)	> 100 µM
CCOC(=O)Cc1csc2[n+]1C(=O)/C(=C/c1cccc(OC)c1O)S2	> 100 µM
O=c1c(O)cccc2cc(O)c(O)c(O)c12	> 100 µM
COc1ccc(/C=C2\CCC(C)/C(=C\c3ccc(OC)c(OC)c3)C2=O)cc1OC (centres undefined)	23.1 µM
CC(=O)c1ccc2c(ccc(=O)n2C)c1	> 100 µM
Cc1ccc2c(n1)C(=O)C=CC2=O	29.2 µM
O=C(C[n+]1ccccc1)N/N=C(\Cc1nc2ccc([N+](=O)[O-])cc2[nH]c1=O)C(=O)Nc1cc(Cl)c(Cl)cc1Cl	> 100 µM
COc1cc2c3c(n(CCCNCCCNCCCNCCCN)c(=O)c2cc1OC)-c1cc2c(cc1C3=O)OCO2	6.19 µM
O=C(Nc1c(C(F)(F)F)cc(-c2ccccc2)[nH]c1=O)N1CCOCC1	> 100 µM
CC(=O)Oc1cc2c(c3ncccc13)OC(C)(C)C2	> 100 µM
COC(=O)c1cccc(N[C@@H]2c3cc4c(cc3C(c3cc(OC)c(O)c(OC)c3)[C@H]3C(=O)OCC32)OCO4)c1 (some centres undefined)	8.28 µM
CC(=O)NNc1nc(C)c(C(/C=C/c2ccc([N+](=O)[O-])cc2)=N/NC(N)=S)s1	> 100 µM
Cc1ccc(C(=O)Nc2ccc(S(=O)(=O)O)c3cc(S(=O)(=O)O)cc(S(=O)(=O)O)c23)cc1NC(=S)Nc1cc(C(=O)Nc2ccc(S(=O)(=O)O)c3cc(S(=O)(=O)O)cc(S(=O)(=O)O)c23)ccc1C	> 75 µM
OC(COc1ccc(F)cc1)Cn1cnc2c(Cl)ncnc21 (centres undefined)	> 100 µM
O=S(=O)(N/N=C/c1cccc(Cl)c1Cl)c1ccccc1	> 100 µM
C=C1C(=O)C[C@@]23CCC[C@@]12CC(OCOC)C3 (some centres undefined)	7.62 µM
CCN(CC)CCCNc1ncc(C)c2[nH]c3ccncc3c12	28.2 µM
CC(=O)[O-].[Mn+3].[O-]c1ccccc1C=NCCN=Cc1ccccc1[O-]	> 100 µM
Cc1ccc(C2NC(=O)c3ccccc3N2)s1 (centres undefined)	> 100 µM
COc1ccc(/C=C2\CC(C)CC3C2=NN(C(C)=O)C3c2ccc(OC)cc2)cc1 (centres undefined)	35.3 µM
C=C(C)C1CC/C(C)=C/CC[C@]2(C)O[C@H]2CC/C(COC(C)=O)=C\[C@@H]1O (some centres undefined)	> 50 µM
O=C(CCCNc1nc(-c2ccccc2)cs1)c1cccs1	> 100 µM
CCOc1ccc(NC(=O)/C(=N\NC(C)(C)C)C2C(=O)Nc3ccccc3S2=O)cc1 (centres undefined)	> 100 µM
O=C(O)Cc1ccc(Oc2nc3ccccc3nc2C(=O)O)cc1	> 100 µM
Cc1ccc([N+](=O)[O-])cc1S(=O)(=O)Nc1ccc(C2=NNC(c3ccccc3O)C2)cc1 (centres undefined)	41.6 µM

====

Here, each record is paired with measured TGI data.
Tested on: HOP-92 NSCLC
Test: NCI tumour cell line growth inhibition, 48 h
valueKind: TGI (µM)

COc1ccc(C[C@@H]2NC[C@@H](O)[C@@H]2OC(C)=O)cc1	0.0448
Cc1cc(O)c(C2=NN(c3ccc(S(N)(=O)=O)cc3)C(c3ccc(N(C)C)cc3)C2)c(C)c1Cl (stereo not given)	23.6
C[C@@H]1Cc2c([nH]c3ccccc23)[C@@H](c2c(F)cc(NC3CN(CCCF)C3)cc2F)N1CC(F)(F)CO	6.36
COc1cc2c(cc1OC)C(OC)N(C)c1c-2ccc2cc3c(cc12)OCO3 (stereo not given)	5.76
C[C@]12Cc3cnn(-c4ccc(F)cc4)c3NC1CC[C@@H]1C2CC[C@@]2(C)C1CC[C@@H]2O (stereo not given in full)	24.7
CCN(CC)CCCNc1ncc(C)c2[nH]c3ccncc3c12	26.3
CC(=O)O[C@@H]1[C@@H](O)C2=C3[C@]4(C)[C@@H]1C(C)(C)C(=O)C[C@@H]4[C@]3(O)[C@H](OC(C)=O)[C@@]1(C[C@@H]1C)C2=O	36.6
COc1ccc(C(=O)/C=C/c2cc3c(c(OC)c2)OCC(=O)N3)cc1	17.7
COC1=CC(=O)C(OC)=C(OC)C1=O	22.4
COC(=O)c1cccc(N[C@@H]2c3cc4c(cc3C(c3cc(OC)c(O)c(OC)c3)[C@H]3C(=O)OCC32)OCO4)c1 (stereo not given in full)	7.14
COc1cc2c3c(n(CCCNCCCNCCCNCCCN)c(=O)c2cc1OC)-c1cc2c(cc1C3=O)OCO2	9.64
Fc1ccc(-c2ncn(C3CCNCC3)c2-c2ccnc(Oc3ccc(F)c(F)c3)n2)cc1	15.6
CC1=C(C(=O)NCc2ccccc2)C(c2ccc([N+](=O)[O-])cc2)C(C(=O)NCc2ccccc2)=C(C)N1	73.6

====

Test system: OVCAR-8 ovarian
Assay: NCI tumour cell line growth inhibition, 48 h
valueKind: TGI (µM)

C=C1C(=O)C[C@@]23CCC[C@@]12CC(OCOC)C3 (stereo partly specified)	9.96
CN(C)CCSc1cccc(-c2cc(-c3cccc(SCCN(C)C)c3)nc(SCCN(C)C)n2)c1	2.78
COc1ccc2c(c1)/C(=C\c1c(C)nc3sc(C)cn13)C(=O)N2	41.6
CCN(CC)c1ccc2c(c1)Oc1nc(N)c(C#N)c(N)c1C2Sc1ccc(OC)cc1 (stereo unspecified)	3.76
O=C(Cc1csc(N=Nc2c(O)[nH]c3ccccc23)n1)Nc1ccccc1	65.8

====

Tested on: OVCAR-5 ovarian
Experiment: NCI tumour cell line growth inhibition, 48 h
valueKind: TGI

CCN(CC)CCCC(C)Nc1nc(C)cc(Nc2ccc3nc(C)cc(N)c3c2)n1 (stereo not given)	> 100 µM
CC(=O)Oc1ccc2c(c1)oc1c3ccc(OC(C)=O)cc3n(C)c(=O)c21	> 100 µM
COc1cc(NC(C)=O)ccc1C(=O)NN1C(=O)C(Cl)C1c1ccco1 (stereo not given)	> 100 µM
COc1ccc2c(c1)/C(=C\c1c(C)nc3sc(C)cn13)C(=O)N2	74.4 µM
CC#C/C(=N\OC[C@H]1COCCN1)c1ccc2ncnc(Nc3ccc(OCc4cccc(F)c4)c(Cl)c3)c2c1	4.27 µM

====

Tested on: K-562 leukemia
Assay: NCI tumour cell line growth inhibition, 48 h
Here, each record is paired with measured TGI data.
valueKind: TGI

CC(=O)OC1CC2Oc3ccc(C)cc3C(C)(O2)C1=O (configuration not stated)	> 100 µM
O=C(Cc1nc2ccccc2s1)C(=O)Nc1cccc(Cl)c1	> 100 µM
C=C1C(=O)C[C@@]23CCC[C@@]12CC(OCOC)C3 (some centres not stated)	> 51.5 µM
N#CC(C#N)N=Nc1ccc(Br)cc1	> 100 µM
CC(C)(C)c1cc2c(O)c(c1)Cc1cc(C(C#N)(Cc3ccc4ccccc4c3)Cc3ccc4ccccc4c3)cc(c1O)Cc1cc(C(C)(C)C)cc(c1O)Cc1cc(C(C#N)(Cc3ccc4ccccc4c3)Cc3ccc4ccccc4c3)cc(c1O)C2	> 100 µM
O=S(=O)(N/N=C/c1cccc(Cl)c1Cl)c1ccccc1	> 100 µM
CN(CCc1ccccn1)c1nc(=[N+](C)C)ss1	> 100 µM
CC(=O)[O-].[Mn+3].[O-]c1ccccc1C=NCCN=Cc1ccccc1[O-]	> 100 µM
CC1=C(C(=O)NCc2ccccc2)C(c2ccc([N+](=O)[O-])cc2)C(C(=O)NCc2ccccc2)=C(C)N1	> 100 µM
Nc1ncc(Cl)c(NCC2(CO)CC(CCc3ccccc3)C2)n1 (configuration not stated)	> 100 µM
COC(=O)NC1(NC(=O)OC)NC(=O)c2cc(OC)c(OC)c(OC)c2N1	> 100 µM
CN(CCO)c1nc(N)cc(=O)[nH]1	> 100 µM
CCOC(=O)c1c(C)cc(=O)n2c1[nH]c1ccccc12	> 100 µM
S=C(Nc1ccc(Cl)cc1)Nc1ccc(-c2nc3ccccc3o2)cc1	> 100 µM
CCN(CC)CCNC(=O)c1ccc(I)cc1	> 100 µM
CC(C)CC(=O)Nc1n[nH]c2c1CN(C(=O)C1CCN(C)CC1)C2(C)C	> 10 µM
C#CCN(N=O)C(=O)NC(CCCNC(=O)OCc1ccccc1)C(=O)OCc1ccccc1 (configuration not stated)	> 100 µM
Cc1ccc(C(=O)Nc2ccc(S(=O)(=O)O)c3cc(S(=O)(=O)O)cc(S(=O)(=O)O)c23)cc1NC(=S)Nc1cc(C(=O)Nc2ccc(S(=O)(=O)O)c3cc(S(=O)(=O)O)cc(S(=O)(=O)O)c23)ccc1C	> 75 µM
COc1cc(/C=C/c2cc(/C=C/c3ccc(O)c(OC)c3)nc(N)n2)ccc1O	8.31 µM
Nc1nc2cc3ccc(C4CC(O)C(CO)O4)cc3cc2c(=O)[nH]1 (configuration not stated)	> 100 µM
COc1cc(C(=O)O[C@@H]2[C@@H](OC(=O)c3cc(OC)c(OC)c(OC)c3)[C@@H](OC)O[C@@H]3CO[C@@H](c4ccccc4)O[C@@H]23)cc(OC)c1OC	> 100 µM
O=C(O)c1ccc(S(=O)(=O)Nc2ccc3oc4c(c3c2)C(=O)CCC4)cc1	> 100 µM
Brc1c(C#CCC(c2ccccc2)(c2ccccc2)c2ccccc2)ccc(C#CCC(c2ccccc2)(c2ccccc2)c2ccccc2)c1Br	> 100 µM
Cc1ccc([N+](=O)[O-])cc1S(=O)(=O)Nc1ccc(C2=NNC(c3ccccc3O)C2)cc1 (configuration not stated)	> 100 µM
COC(=O)CCC(=O)Nc1cc(Cl)ccc1Cl	> 100 µM
Cc1cc(N=Nc2c(O)ccc3ccccc23)ccc1N=Nc1cccc([N+](C)(C)C)c1	> 90.7 µM
Cc1nccc2c3ccc(OCc4cn(-c5ccc(Cl)cc5)nn4)cc3n(CCCc3ccccc3)c12	> 33.3 µM
